Values from patent US20250387403A1

Overview of recorded pKi for various molecules
- targetOrTestSystem: σ2R/TMEM97 (Homo sapiens)
- Sequence (Q5BJF2 whole entry, looked up): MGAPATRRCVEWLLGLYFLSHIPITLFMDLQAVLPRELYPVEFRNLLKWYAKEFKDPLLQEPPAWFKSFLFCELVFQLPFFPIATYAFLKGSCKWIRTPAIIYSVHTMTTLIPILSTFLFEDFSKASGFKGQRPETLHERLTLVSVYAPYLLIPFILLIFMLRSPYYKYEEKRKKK
Notebook: values listed as pKi are -log10 of the concentration (mol/L).

The examples below pair each entry with its known result.
# molecule, targetOrTestSystem, pKi
data = [
    ("O=C(C1CCNCC1)N1CCCC2CC1c1cc(-c3ccc(C(F)(F)F)cc3)ccc12 (stereo not drawn)", "σ2R/TMEM97 (Homo sapiens)", 7.28),
    ("FC(F)(F)c1ccc(-c2ccc3c(c2)C2CC3CCCN2)cc1 (stereo not drawn)", "σ2R/TMEM97 (Homo sapiens)", 7.68),
    ("O=C(N1CCC2(CC1)CN(CCO)C2)N1CCC2C[C@H]1c1cc(-c3ccc(C(F)(F)F)cc3)ccc12", "σ2R/TMEM97 (Homo sapiens)", 7.04),
]

Find the measured pKi of OC(CF)CN1CCC2CC1c1cc(-c3ccc(C(F)(F)F)cc3)ccc12 (stereo not drawn) with σ2R/TMEM97 (Homo sapiens) as test system.
7.47

// fetch pKi for `COCCN1CCC(C(=O)N2CCC3C[C@H]2c2cc(-c4ccc(C(F)(F)F)cc4)ccc23)CC1` ; system: σ2R/TMEM97 (Homo sapiens)
7.99

Name the value of pKi reported for COc1ccc(-c2ccc3c(c2)C2CC3CCCN2C2CCCC2)cc1 (stereo not drawn) when tested on σ2R/TMEM97 (Homo sapiens).
6.71

Please report the measured pKi for O=C(C1CCN(CCO)CC1)N1CCC2CC1c1cc(-c3cccc(C(F)(F)F)c3)ccc12 (stereo not drawn) tested on σ2R/TMEM97 (Homo sapiens).
7.49

Send back σ2R/TMEM97 (Homo sapiens) pKi of `O=C(C1CCNCC1)N1CC[C@H]2CC1c1cc(-c3cccc(OC(F)(F)F)c3)ccc12` only.
7.43

# return pKi for `N[C@H]1CC[C@@H](N2CCC3C[C@H]2c2cc(-c4cccc(C(F)(F)F)c4)ccc23)CC1` , test system: σ2R/TMEM97 (Homo sapiens)
7.51

###

Let's go through some pKi measurements on σ2R/TMEM97 (Homo sapiens) together.
# pKi is unitless: minus log10 of the molar concentration; print number only

# compound, targetOrTestSystem, pKi
measured = [
    ("O=C(C1CCNCC1)N1CC[C@@H]2CC1c1cc(-c3cccc(OC(F)(F)F)c3)ccc12", "σ2R/TMEM97 (Homo sapiens)", 7.45),
    ("CNCCC(=O)N1CCC2CC1c1cc(-c3cccc(C(F)(F)F)c3)ccc12 (centres unmarked)", "σ2R/TMEM97 (Homo sapiens)", 8.31),
    ("O=C(C1CCN(CCO)CC1)N1CCC2C[C@H]1c1cc(-c3ccc(C(F)(F)F)cc3)ccc12", "σ2R/TMEM97 (Homo sapiens)", 7.87),
    ("N[C@H]1CC[C@H](N2CCC3CC2c2cc(-c4cccc(C(F)(F)F)c4)ccc23)CC1 (some centres unmarked)", "σ2R/TMEM97 (Homo sapiens)", 7.15),
    ("O=C(N1CC2CC(C1)N2CCO)N1CCC2C[C@H]1c1cc(-c3ccc(C(F)(F)F)cc3)ccc12", "σ2R/TMEM97 (Homo sapiens)", 7.20),
]

State, for σ2R/TMEM97 (Homo sapiens), measured pKi of the compound listed here: FC(F)(F)c1ccc(-c2ccc3c(c2)C2CC3CCCN2C2CCCC2)cn1 (centres unmarked)
6.47

State, for σ2R/TMEM97 (Homo sapiens), measured pKi of the compound listed here: O=C(C1CCNCC1)N1CCC2CC1c1cc(-c3cccc(C(F)(F)F)c3)ccc12 (centres unmarked)
8.26

Provide pKi, recorded with σ2R/TMEM97 (Homo sapiens), of `OCCCN1CC[C@@H]2CC1c1cc(-c3cccc(OC(F)(F)F)c3)ccc12`
7.32

# lookup: σ2R/TMEM97 (Homo sapiens) pKi, key = FC(F)(F)c1ccccc1-c1ccc2c(c1)C1CC2CCCN1C1CCCC1 (centres unmarked)
6.26

Consider the compound `CS(=O)(=O)c1ccc(-c2ccc3c(c2)[C@@H]2CC3CCN2C(=O)C2CCN(CCO)CC2)cc1` tested on σ2R/TMEM97 (Homo sapiens); state its pKi.
6.08

Please report the measured pKi for N[C@H]1CC[C@@H](N2CCC3CC2c2cc(-c4cccc(C(F)(F)F)c4)ccc23)CC1 (some centres unmarked) tested on σ2R/TMEM97 (Homo sapiens).
8.10

Write down measured pKi (σ2R/TMEM97 (Homo sapiens)) for this compound. CCCN1CCC(C(=O)N2CCC3CC2c2cc(-c4ccc(C(F)(F)F)cc4)ccc23)CC1 (centres unmarked)
8.89

Name the recorded pKi of `O=C(C1CCN(CCCO)CC1)N1CCC2C[C@H]1c1cc(-c3ccc(C(F)(F)F)cc3)ccc12` , assay system σ2R/TMEM97 (Homo sapiens).
8.11

Name the recorded pKi of OCCN1CCC2CC1c1cc(-c3ccc(C(F)(F)F)cc3)ccc12 (centres unmarked) , assay system σ2R/TMEM97 (Homo sapiens).
7.49

Give pKi for Fc1ccc(-c2ccc3c(c2)C2CC3CCCN2C2CCCC2)cc1 (centres unmarked) tested on σ2R/TMEM97 (Homo sapiens).
6.82

Lab note: σ2R/TMEM97 (Homo sapiens) assay, enter pKi for CCCN1CCC2CC1c1cc(-c3cccc(C(F)(F)F)c3)ccc12 (centres unmarked) here
6.95

Check σ2R/TMEM97 (Homo sapiens) data and give pKi for OC1CCC(N2CCCC3CC2c2cc(-c4ccc(C(F)(F)F)cc4)ccc23)CC1 (centres unmarked) .
7.41
